- experimentalSystem: T1, full-length human APLNR (hAPLNR) (human, UniProt P35414 1-380)
- T1 sequence: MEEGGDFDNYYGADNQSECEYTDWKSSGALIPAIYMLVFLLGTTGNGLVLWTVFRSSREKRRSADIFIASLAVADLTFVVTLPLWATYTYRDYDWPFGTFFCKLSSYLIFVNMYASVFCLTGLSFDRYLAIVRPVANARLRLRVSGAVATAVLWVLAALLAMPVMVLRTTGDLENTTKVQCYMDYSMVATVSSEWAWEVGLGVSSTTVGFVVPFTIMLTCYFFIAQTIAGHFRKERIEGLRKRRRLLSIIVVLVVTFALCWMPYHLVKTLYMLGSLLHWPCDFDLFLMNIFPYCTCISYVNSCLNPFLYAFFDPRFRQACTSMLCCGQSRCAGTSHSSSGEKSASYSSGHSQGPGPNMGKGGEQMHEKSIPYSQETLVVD
- experimentalDetails: cell-based or functional assay
outcomeMeasure: EC50 (M), CRE assay (5 uM forskolin), HEK293/CRE-luc/hAPLNR
One number for each entry, in M.

Past entries and their recorded results:
PPRLSHKGPMP [Apelin67-76] : 1.14e-13
PRPRLSHKGPM [Apelin66-75] : 2.17e-12
PPRLSHKGPMPF [Apelin-11] : 4.38e-10
PPRLSHKGPM [Apelin67-75] : 3.74e-07

Field: next binder
Provide measured EC50 (M), CRE assay (5 uM forskolin), HEK293/CRE-luc/hAPLNR value, entry: PRPRLSHKGPMP [Apelin66-76] 5.19e-12
